biological target: recombinant soluble homotrimeric HA of A/Hong Kong/2108/03 (H9N2) (Influenza A virus A/HK/2108/2003(H9N2)); assay: trimeric HA microarray, transfection supernatant set 2; settings: remark: other sources report otherwise
Trimeric HA Binding: RLU listing for selected binders.
Dear colleague, please send the value followed by its unit.

TCN-523 (5248_A17) (antibody, V domains shown) VH: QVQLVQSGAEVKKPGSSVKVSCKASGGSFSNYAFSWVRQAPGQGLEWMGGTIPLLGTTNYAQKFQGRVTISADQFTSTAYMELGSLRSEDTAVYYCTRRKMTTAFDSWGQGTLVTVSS VL: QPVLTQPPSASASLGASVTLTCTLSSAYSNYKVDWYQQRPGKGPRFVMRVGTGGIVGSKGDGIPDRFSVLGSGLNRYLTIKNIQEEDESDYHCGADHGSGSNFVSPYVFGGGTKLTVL
18 RLU

Item TCN-563 (5237_B21) (antibody, V domains shown) VH: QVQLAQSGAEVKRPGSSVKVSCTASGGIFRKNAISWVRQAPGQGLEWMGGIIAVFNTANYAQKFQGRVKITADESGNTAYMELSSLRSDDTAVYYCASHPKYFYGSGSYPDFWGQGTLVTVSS VL: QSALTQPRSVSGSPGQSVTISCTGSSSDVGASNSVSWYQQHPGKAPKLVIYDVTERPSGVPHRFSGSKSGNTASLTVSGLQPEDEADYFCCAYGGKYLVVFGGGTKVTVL : provide Trimeric HA Binding: RLU
364 RLU

Provide only the value of recorded Trimeric HA Binding: RLU for TCN-527 (5086_C06) (antibody, V domains shown) VH: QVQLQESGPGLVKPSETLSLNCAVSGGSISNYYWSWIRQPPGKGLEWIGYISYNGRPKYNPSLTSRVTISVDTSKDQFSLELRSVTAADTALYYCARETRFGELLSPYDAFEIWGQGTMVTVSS VL: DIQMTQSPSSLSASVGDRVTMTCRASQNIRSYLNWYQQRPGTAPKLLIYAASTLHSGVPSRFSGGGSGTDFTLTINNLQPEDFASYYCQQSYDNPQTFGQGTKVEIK
25500 RLU

Supply reported Trimeric HA Binding: RLU belonging to this binder: TCN-522 (3212_I12) (antibody, V domains shown) VH: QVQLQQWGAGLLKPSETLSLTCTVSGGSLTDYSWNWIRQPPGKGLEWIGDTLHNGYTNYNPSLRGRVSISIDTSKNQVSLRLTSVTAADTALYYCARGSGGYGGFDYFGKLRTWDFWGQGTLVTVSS VL: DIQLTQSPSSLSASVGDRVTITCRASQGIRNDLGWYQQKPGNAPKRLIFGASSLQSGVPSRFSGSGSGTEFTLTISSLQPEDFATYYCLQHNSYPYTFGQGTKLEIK
203 RLU
